Test system: NCI-H2023
test: relative viability (nuclei count vs DMSO), 5 days (fraction); higher = more cells survive
cond: first compound 0.6325 µM
Flag rule - relative viability less than 0.6 flags true (1); the remaining entries get false (0).

Decide: relative viability of Cc1csc(=NC2CCCCC2)n1/N=C/c1ccc(O)c(O)c1O [MIM1] + CC(C)C[C@H](NC(=O)[C@H](Cc1ccccc1)NC(=O)c1cnccn1)B(O)O [Bortezomib] (partner 0.002 µM) strictly below 0.6?
false (0)

Decide: relative viability of CN1CCN(CCOc2cc(OC3CCOCC3)c3c(Nc4c(Cl)ccc5c4OCO5)ncnc3c2)CC1 [Saracatinib] + CC1(C)CCC(c2ccc(Cl)cc2)=C(CN2CCN(c3ccc(C(=O)NS(=O)(=O)c4ccc(N[C@H](CCN5CCOCC5)CSc5ccccc5)c(S(=O)(=O)C(F)(F)F)c4)cc3)CC2)C1 [Navitoclax] (partner 0.5 µM) strictly below 0.6?
false (0)

Decide: relative viability of CN1CCN(CCOc2cc(OC3CCOCC3)c3c(Nc4c(Cl)ccc5c4OCO5)ncnc3c2)CC1 [Saracatinib] + Cc1nc(NC(=O)N2CCC[C@H]2C(N)=O)sc1-c1ccnc(C(C)(C)C(F)(F)F)c1 [Alpelisib] (partner 2 µM) strictly below 0.6?
true (1)

Decide: relative viability of CN1CCN(CCOc2cc(OC3CCOCC3)c3c(Nc4c(Cl)ccc5c4OCO5)ncnc3c2)CC1 [Saracatinib] + CC(=O)c1c(C)c2cnc(Nc3ccc(N4CCNCC4)cn3)nc2n(C2CCCC2)c1=O [Palbociclib] (partner 0.5 µM) strictly below 0.6?
true (1)

Decide: relative viability of CN1CCN(CCOc2cc(OC3CCOCC3)c3c(Nc4c(Cl)ccc5c4OCO5)ncnc3c2)CC1 [Saracatinib] + COc1cccc2cc(-c3nc([C@H]4CC[C@H](C(=O)O)CC4)n4ncnc(N)c34)[nH]c12 [OSI-027] (partner 0.5 µM) strictly below 0.6?
true (1)

Decide: relative viability of CN1CCN(CCOc2cc(OC3CCOCC3)c3c(Nc4c(Cl)ccc5c4OCO5)ncnc3c2)CC1 [Saracatinib] + CC(=O)Nc1cccc(-n2c(=O)n(C3CC3)c(=O)c3c(Nc4ccc(I)cc4F)n(C)c(=O)c(C)c32)c1 [Trametinib] (partner 0.02 µM) strictly below 0.6?
true (1)

src = the supplement of paper PMC10307832
